Test system: VEGFR3 (Homo sapiens)
Sequence (P35916 25-1363, species assumed): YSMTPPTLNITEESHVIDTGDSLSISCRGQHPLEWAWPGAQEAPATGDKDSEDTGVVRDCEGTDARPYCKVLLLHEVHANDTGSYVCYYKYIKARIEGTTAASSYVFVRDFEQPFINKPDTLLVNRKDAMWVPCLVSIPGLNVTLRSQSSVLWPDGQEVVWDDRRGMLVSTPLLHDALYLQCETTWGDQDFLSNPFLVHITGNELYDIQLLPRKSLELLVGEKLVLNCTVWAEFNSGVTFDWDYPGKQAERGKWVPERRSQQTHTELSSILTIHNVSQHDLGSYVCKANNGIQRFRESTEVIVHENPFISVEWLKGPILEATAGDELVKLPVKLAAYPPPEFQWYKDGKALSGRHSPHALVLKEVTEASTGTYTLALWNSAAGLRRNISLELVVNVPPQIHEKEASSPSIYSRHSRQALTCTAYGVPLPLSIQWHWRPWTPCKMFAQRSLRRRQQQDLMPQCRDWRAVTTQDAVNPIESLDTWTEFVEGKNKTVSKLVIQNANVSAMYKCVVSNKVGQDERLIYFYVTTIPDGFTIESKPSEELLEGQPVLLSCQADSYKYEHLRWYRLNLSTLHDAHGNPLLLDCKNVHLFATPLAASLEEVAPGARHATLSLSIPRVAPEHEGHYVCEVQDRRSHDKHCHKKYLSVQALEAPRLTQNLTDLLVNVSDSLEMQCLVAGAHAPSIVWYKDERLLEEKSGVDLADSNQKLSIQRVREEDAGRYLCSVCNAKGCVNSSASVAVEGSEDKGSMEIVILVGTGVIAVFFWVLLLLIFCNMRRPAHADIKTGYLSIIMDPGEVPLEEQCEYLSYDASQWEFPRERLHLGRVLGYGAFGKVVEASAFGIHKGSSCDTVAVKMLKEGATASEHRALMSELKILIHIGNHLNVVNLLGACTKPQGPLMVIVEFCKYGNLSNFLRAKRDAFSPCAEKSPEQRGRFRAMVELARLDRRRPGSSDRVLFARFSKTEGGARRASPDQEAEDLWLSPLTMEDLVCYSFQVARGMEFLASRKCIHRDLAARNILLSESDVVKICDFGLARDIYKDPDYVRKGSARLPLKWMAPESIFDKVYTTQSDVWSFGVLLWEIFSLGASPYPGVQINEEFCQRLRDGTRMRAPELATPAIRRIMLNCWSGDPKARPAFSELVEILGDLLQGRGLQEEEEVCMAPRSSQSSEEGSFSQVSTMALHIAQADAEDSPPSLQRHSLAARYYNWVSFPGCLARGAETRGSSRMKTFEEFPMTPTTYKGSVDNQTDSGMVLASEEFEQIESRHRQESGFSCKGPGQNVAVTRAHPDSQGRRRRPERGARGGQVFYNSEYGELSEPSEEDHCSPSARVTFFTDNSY
Method description: Caliper Mobility Shift Assay, kinase inhibition
Type: biochemical
Measurement setup: read-out: Kinase inhibitory activity (IC50, nM) VEGFR3
Experimental readout: IC50 (nM)
One number for each entry, in nM.

Worked cases, answers included:
• COc1cc2nccc(Oc3ccc(NC(=O)Nc4cn[nH]c4)cc3F)c2cc1C(N)=O = 34
• CNC(=O)c1cc2c(Oc3ccc(NC(=O)Nc4cnn(C)c4)cc3F)ccnc2cc1OC = 56

query: For the compound COc1cc2nccc(Oc3ccc(NC(=O)Nc4cnn(C)c4)cc3F)c2cc1C(N)=O , give its reported IC50.
result: 84

----------
Method description: Pharmacokinetic property evaluation test in CD-1 mice, intravenous
Assay type: in vivo
Measurement setup: both sexes, mouse, plasma, intravenous injection, 3 mg/kg, single administration, non-compartment model, read-out: Vss
Method: Experimental animals: CD-1 mice, males and females; weight: 20-25 g; […] Route of administration: intravenous injection. […] Dosage: 3 mg/kg. Sample collection: Blood was collected at the following time points: 5 min, 15 min, 30 min, 1 hr, 2 hr, 4 hr, 8 hr, and 24 hr after administration. […] Pharmacokinetic data analysis: The obtained plasma concentration data were fitted and calculated according to the non-compartment model using WinNolin, and some results are summarized in Table 2.
Please go through the items and note down their Vd.
Answers are plain numbers, in L/kg.

• COc1cc2nccc(Oc3ccc(NC(=O)Nc4cnn(C)c4)cc3F)c2cc1C(N)=O = 1.48

Continue with the next compound.
query: For the compound CNC(=O)c1cc2c(Oc3ccc(NC(=O)Nc4cnn(C)c4)cc3F)ccnc2cc1OC , report Vd.
result: 0.525

Hey, just so you know, these numbers are from patent US10689361B2.
